- assay remarks: Apparent permeability from basolateral to apical side in human Caco2 cells at 10 uM after 90 mins by LC-MS/MS analysis
- Type: ADME, cell-based, Caco-2
- experimental context: Caco-2
Kindly supply the reported Papp B→A at 1.5 h, 10 µM values for the records listed here.
Your answer should be a plain number; it is taken to be in ×10⁻⁶ cm/s.

Inquiry: Look up Papp B→A at 1.5 h, 10 µM for this molecule: CC(=O)O[C@H]1C(=O)[C@@]2(C)[C@H]([C@H](OC(=O)c3ccccc3)[C@]3(O)C[C@H](OC(=O)[C@H](O)[C@@H](NC(=O)c4ccccc4)c4ccccc4)C(C)=C1C3(C)C)[C@]1(OC(C)=O)CO[C@@H]1C[C@@H]2O
Reply text: 33.4

Inquiry: Record: CO[C@H]1C(=O)[C@]2(C)CC[C@H]3OC[C@@]3(OC(C)=O)[C@H]2[C@H](OC(=O)c2ccccc2)[C@]23OC(=O)O[C@H]2[C@H](OC(=O)[C@H](O)[C@@H](NC(=O)OC(C)(C)C)c2ccccc2)C(C)=C1C3(C)C
Reply text: 25.3

Inquiry: Okay, and COC(=O)O[C@H]1C[C@H]2OC[C@@]2(OC(C)=O)[C@H]2[C@H](OC(=O)c3ccccc3)[C@]3(O)C[C@H](OC(=O)[C@H](O)[C@H](CC(C)C)NC(=O)OC(C)(C)C)C(C)=C([C@@H](OC)C(=O)[C@]12C)C3(C)C ?
Reply text: 36.4

Inquiry: Param item: COC(=O)O[C@H]1C[C@H]2OC[C@@]2(OC(C)=O)[C@H]2[C@H](OC(=O)c3ccccc3)[C@]34OC(=O)O[C@H]3[C@H](OC(=O)[C@H](O)[C@H](CC(C)C)NC(=O)OC(C)(C)C)C(C)=C([C@@H](OC)C(=O)[C@]12C)C4(C)C
Reply text: 7.16

Inquiry: Also CO[C@H]1C[C@H]2OC[C@@]2(OC(C)=O)[C@H]2[C@H](OC(=O)c3ccccc3)[C@]3(O)C[C@H](OC(=O)[C@H](O)[C@@H](NC(=O)OC(C)(C)C)c4ccccc4)C(C)=C([C@@H](OC(=O)N(C)C)C(=O)[C@]12C)C3(C)C , if possible.
Reply text: 33.1

Inquiry: Likewise for COC(=O)O[C@H]1C[C@H]2OC[C@@]2(OC(C)=O)[C@H]2[C@H](OC(=O)c3ccccc3)[C@]3(O)C[C@H](OC(=O)[C@H](O)[C@@H](NC(=O)OC(C)(C)C)c4ccccc4)C(C)=C([C@@H](OC)C(=O)[C@]12C)C3(C)C ?
Reply text: 38.8

Inquiry: Next entry: COC(=O)O[C@H]1C(=O)[C@]2(C)[C@@H](OC)C[C@H]3OC[C@@]3(OC(C)=O)[C@H]2[C@H](OC(=O)c2ccccc2)[C@]2(O)C[C@H](OC(=O)[C@H](O)[C@H](CC(C)C)NC(=O)OC(C)(C)C)C(C)=C1C2(C)C
Reply text: 33.3

Inquiry: How about CC(=O)O[C@H]1C(=O)[C@@]2(C)[C@H]([C@H](OC(=O)c3ccccc3)[C@]34OC(=O)O[C@H]3[C@H](OC(=O)[C@H](O)[C@H](CC(C)C)NC(=O)OC(C)(C)C)C(C)=C1C4(C)C)[C@]1(OC(C)=O)CO[C@@H]1C[C@@H]2O ?
Reply text: 19.2

* * *

For each entry below, report its Papp A→B at 1.5 h, 10 µM value.
- assay remarks: Apparent permeability from apical to basolateral side in human Caco2 cells at 10 uM after 90 mins by LC-MS/MS analysis
- Assay type: ADME, cell-based, Caco-2
- experimental context: Caco-2
Just the number in ×10⁻⁶ cm/s, nothing appended.

Inquiry: Would you mind telling me what Papp A→B at 1.5 h, 10 µM value was observed for CO[C@H]1C[C@H]2OC[C@@]2(OC(C)=O)[C@H]2[C@H](OC(=O)c3ccccc3)[C@]34OC(=O)O[C@H]3[C@H](OC(=O)[C@H](O)[C@@H](NC(=O)OC(C)(C)C)c3ccccn3)C(C)=C([C@@H](OC(=O)N(C)C)C(=O)[C@]12C)C4(C)C ?
Reply text: 4.68

Inquiry: Okay, and CO[C@H]1C(=O)[C@]2(C)[C@@H](OC)C[C@H]3OC[C@@]3(OC(C)=O)[C@H]2[C@H](OC(=O)c2ccccc2)[C@]23OC(=O)O[C@H]2[C@H](OC(=O)[C@H](O)[C@@H](NC(=O)c2ccccc2)c2ccccc2)C(C)=C1C3(C)C ?
Reply text: 1.48

Inquiry: Try CO[C@H]1C(=O)[C@]2(C)[C@@H](OC(=O)N(C)C)C[C@H]3OC[C@@]3(OC(C)=O)[C@H]2[C@H](OC(=O)c2ccccc2)[C@]23OC(=O)O[C@H]2[C@H](OC(=O)[C@H](O)[C@H](CC(C)C)NC(=O)OC(C)(C)C)C(C)=C1C3(C)C next.
Reply text: 2.4

* * *

- Tested on: HT-29
- assay remarks: Cytotoxicity against human HT-29 cells at 1 uM after 72 hrs by MTT assay
- Assay type: functional
- experimental context: HT-29, 72 h, read-out: GI
measured quantity: inhibition of growth at 1 µM

Inquiry: Report inhibition of growth at 1 µM for CO[C@H]1C(=O)[C@]2(C)[C@@H](OC(=O)N(C)C)C[C@H]3OC[C@@]3(OC(C)=O)[C@H]2[C@H](OC(=O)c2ccccc2)[C@]2(O)C[C@H](OC(=O)[C@H](O)[C@@H](NC(=O)c3ccccc3)c3ccccc3)C(C)=C1C2(C)C tested on HT-29.
Reply text: 89.4%

Inquiry: Same question for COC(=O)O[C@H]1C[C@H]2OC[C@@]2(OC(C)=O)[C@H]2[C@H](OC(=O)c3ccccc3)[C@]3(O)C[C@H](OC(=O)[C@H](O)[C@@H](NC(=O)c4ccccc4)c4ccccc4)C(C)=C([C@@H](OC)C(=O)[C@]12C)C3(C)C please.
Reply text: 89.7%

Inquiry: Can you check COC(=O)O[C@H]1C[C@H]2OC[C@@]2(OC(C)=O)[C@H]2[C@H](OC(=O)c3ccccc3)[C@]3(O)C[C@H](OC(=O)[C@H](O)[C@@H](NC(=O)OC(C)(C)C)c4ccccc4)C(C)=C([C@@H](OC)C(=O)[C@]12C)C3(C)C next?
Reply text: 89.7%

Inquiry: Now the same for CO[C@H]1C(=O)[C@]2(C)[C@@H](OC(=O)N(C)C)C[C@H]3OC[C@@]3(OC(C)=O)[C@H]2[C@H](OC(=O)c2ccccc2)[C@]23OC(=O)O[C@H]2[C@H](OC(=O)[C@H](O)[C@@H](NC(=O)OC(C)(C)C)c2ccccc2)C(C)=C1C3(C)C
Reply text: 87.4%

* * *

- assay remarks: Apparent permeability from apical to basolateral side in human Caco2 cells at 10 uM after 90 mins by LC-MS/MS analysis
- Type: ADME, cell-based, Caco-2
- experimental context: Caco-2
// boundary case: Papp A→B at 1.5 h, 10 µM equal to 3 ×10⁻⁶ cm/s maps to rule not met; strictly smaller maps to rule met

Inquiry: # check: Papp A→B at 1.5 h, 10 µM < 3 ×10⁻⁶ cm/s for CO[C@H]1C(=O)[C@]2(C)[C@@H](OC(=O)N(C)C)C[C@H]3OC[C@@]3(OC(C)=O)[C@H]2[C@H](OC(=O)c2ccccc2)[C@]2(O)C[C@H](OC(=O)[C@H](O)[C@@H](NC(=O)OC(C)(C)C)c3ccccn3)C(C)=C1C2(C)C
Reply text: rule not met

Inquiry: Record: CO[C@H]1C(=O)[C@]2(C)CC[C@H]3OC[C@@]3(OC(C)=O)[C@H]2[C@H](OC(=O)c2ccccc2)[C@]23OC(=O)O[C@H]2[C@H](OC(=O)[C@H](O)[C@@H](NC(=O)OC(C)(C)C)c2ccccc2)C(C)=C1C3(C)C
Reply text: rule met

Inquiry: Can you check CO[C@H]1C(=O)[C@]2(C)[C@@H](OC)C[C@H]3OC[C@@]3(OC(C)=O)[C@H]2[C@H](OC(=O)c2ccccc2)[C@]23OC(=O)O[C@H]2[C@H](OC(=O)[C@H](O)[C@H](CC(C)C)NC(=O)OC(C)(C)C)C(C)=C1C3(C)C next?
Reply text: rule met

Inquiry: Try this compound too: CO[C@H]1C[C@H]2OC[C@@]2(OC(C)=O)[C@H]2[C@H](OC(=O)c3ccccc3)[C@]34OC(=O)O[C@H]3[C@H](OC(=O)[C@H](O)[C@@H](NC(=O)OC(C)(C)C)c3ccccc3)C(C)=C([C@@H](OC(=O)N(C)C)C(=O)[C@]12C)C4(C)C
Reply text: rule not met

Inquiry: Please do the same for COC(=O)O[C@H]1C[C@H]2OC[C@@]2(OC(C)=O)[C@H]2[C@H](OC(=O)c3ccccc3)[C@]34OC(=O)O[C@H]3[C@H](OC(=O)[C@H](O)[C@@H](NC(=O)OC(C)(C)C)c3ccccc3)C(C)=C([C@@H](OC)C(=O)[C@]12C)C4(C)C as well.
Reply text: rule not met

Inquiry: Next record, please: CC[C@H]1OC(=O)[C@H](C)[C@@H](O[C@H]2C[C@@](C)(OC)[C@@H](O)[C@H](C)O2)[C@H](C)[C@@H](O[C@@H]2O[C@H](C)C[C@H](N(C)C)[C@H]2O)[C@](C)(O)C[C@@H](C)C(=O)[C@H](C)[C@@H](O)[C@]1(C)O
Reply text: rule met

Inquiry: And for CO[C@H]1C(=O)[C@]2(C)[C@@H](OC)C[C@H]3OC[C@@]3(OC(C)=O)[C@H]2[C@H](OC(=O)c2ccccc2)[C@]2(O)C[C@H](OC(=O)[C@H](O)[C@@H](NC(=O)OC(C)(C)C)c3ccccc3)C(C)=C1C2(C)C ?
Reply text: rule not met
